Listing of entries alongside the reported Cell survival rate (% @ 10 μM).
system: Tau-BiFC cells; assay: Cytotoxicity (cell survival rate) in tau-BiFC cells; settings: group treated with Forskolin alone = 100%
Write the numeric value and follow it with the unit.

Summary for this compound, N#CC(C#N)=NNc1ccc(-c2ncccn2)c(F)c1 [Compound 39] : Cell survival rate (% @ 10 μM) is 89.8%

Summary for this compound, N#CC(C#N)=NNc1ccc2nc(NC(=O)c3cnccn3)sc2c1 [Compound 92] : Cell survival rate (% @ 10 μM) is 119.5%

Summary for this compound, N#CC(C#N)=NNc1cnc2ccccc2c1 [Compound 64] : Cell survival rate (% @ 10 μM) is 112.5%

Summary for this compound, Cc1ncc(C(=O)Nc2nc3ccc(NN=C(C#N)C#N)cc3s2)cn1 [Compound 95] : Cell survival rate (% @ 10 μM) is 100.8%

Summary for this compound, COc1cccc2sc(NN=C(C#N)C#N)nc12 [Compound 59] : Cell survival rate (% @ 10 μM) is 120.3%

Summary for this compound, Cc1ncsc1-c1ccc(NN=C(C#N)C#N)cc1 [Compound 12] : Cell survival rate (% @ 10 μM) is 119.3%

Summary for this compound, N#CC(C#N)=NNc1ccc(-c2ccc3[nH]ccc3c2)cc1 [Compound 58] : Cell survival rate (% @ 10 μM) is 113.8%

The origin of these recorded values is patent US12590071B2.
